In this section, each of the binders is paired with its reported pKd.
Biological target: T1, human EpCAM-mFc (human)
T1 chain: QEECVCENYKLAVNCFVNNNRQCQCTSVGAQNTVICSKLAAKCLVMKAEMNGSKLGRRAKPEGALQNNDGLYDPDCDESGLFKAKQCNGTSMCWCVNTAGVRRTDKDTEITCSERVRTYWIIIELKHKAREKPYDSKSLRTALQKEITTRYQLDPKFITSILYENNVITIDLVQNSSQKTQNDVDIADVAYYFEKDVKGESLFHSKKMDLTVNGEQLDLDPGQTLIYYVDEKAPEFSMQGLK
Assay: ELISA
Keep in mind that pKd stands for -log10 of concentration in molar terms.

Entry EP11-3014 (1565-Y) (antibody) chain 1: QVQLVQSGAEVKKPGASVKVSCKASGYTFTNYYIHWVRQAPGQRLEYIGWIYPGNVYIQYNEKFKGRATLTADKSASTAYMELSSLRSEDTAVYYCARDGYWFAYWGQGTLVTVSS chain 2: QGQSGQGFICPTLYDRPHCMHTGGGSSGGAVGLLAPPGGLSGRSDNIGGSDIVLTQTPLSLSVTPGQPASISCRSSRSLLHSDGFTYLYWFLQKPGQSPQLLIYQTSNLASGVPDRFSSSGSGTDFTLKISRVEAEDVGVYYCAQNLELPNTFGQGTKLEIK ; pKd = 7.42

Entry EP03-3014 (1565-Y) (antibody) chain 1: QVQLVQSGAEVKKPGASVKVSCKASGYTFTNYYIHWVRQAPGQRLEYIGWIYPGNVYIQYNEKFKGRATLTADKSASTAYMELSSLRSEDTAVYYCARDGYWFAYWGQGTLVTVSS chain 2: QGQSGQGHYCHSRTDTITHCNAGGGSSGGAVGLLAPPGGLSGRSDNIGGSDIVLTQTPLSLSVTPGQPASISCRSSRSLLHSDGFTYLYWFLQKPGQSPQLLIYQTSNLASGVPDRFSSSGSGTDFTLKISRVEAEDVGVYYCAQNLELPNTFGQGTKLEIK ; pKd = 7.19

Entry EP04-3014 (1361-H) (antibody) chain 1: QVQLVQSGAEVKKPGASVKVSCKASGYTFTNYHIHWVRQAPGQRLEYIGWIYPGNVYIQYNEKFKGRATLTADKSASTAYMELSSLRSEDTAVYYCARDGPWFAYWGQGTLVTVSS chain 2: QGQSGQGWCPRLFDRPSMGCPTGGGSSGGAVGLLAPPGGLSGRSDNIGGSDIVLTQTPLSLSVTPGQPASISCRSSRSLLHSDGFTYLYWFLQKPGQSPQLLIYQTSNLASGVPDRFSSSGSGTDFTLKISRVEAEDVGVYYCAQNLELPNTFGQGTKLEIK ; pKd = 8.72

Entry EP104-3014 (1565-Y) (antibody) chain 1: QVQLVQSGAEVKKPGASVKVSCKASGYTFTNYYIHWVRQAPGQRLEYIGWIYPGNVYIQYNEKFKGRATLTADKSASTAYMELSSLRSEDTAVYYCARDGYWFAYWGQGTLVTVSS chain 2: QGQSGQGTTRCEHYWFTCPLSPGGGSSGGAVGLLAPPGGLSGRSDNIGGSDIVLTQTPLSLSVTPGQPASISCRSSRSLLHSDGFTYLYWFLQKPGQSPQLLIYQTSNLASGVPDRFSSSGSGTDFTLKISRVEAEDVGVYYCAQNLELPNTFGQGTKLEIK ; pKd = 6.90

Entry EP01-3014 (1361-H) (antibody) chain 1: QVQLVQSGAEVKKPGASVKVSCKASGYTFTNYHIHWVRQAPGQRLEYIGWIYPGNVYIQYNEKFKGRATLTADKSASTAYMELSSLRSEDTAVYYCARDGPWFAYWGQGTLVTVSS chain 2: QGQSGQGPLMTCSDYYTCKNNLGGGSSGGAVGLLAPPGGLSGRSDNIGGSDIVLTQTPLSLSVTPGQPASISCRSSRSLLHSDGFTYLYWFLQKPGQSPQLLIYQTSNLASGVPDRFSSSGSGTDFTLKISRVEAEDVGVYYCAQNLELPNTFGQGTKLEIK ; pKd = 7.74

Entry EP02-3014 (1565-Y) (antibody) chain 1: QVQLVQSGAEVKKPGASVKVSCKASGYTFTNYYIHWVRQAPGQRLEYIGWIYPGNVYIQYNEKFKGRATLTADKSASTAYMELSSLRSEDTAVYYCARDGYWFAYWGQGTLVTVSS chain 2: QGQSGQGLSCTHSRYDMHCPHMGGGSSGGAVGLLAPPGGLSGRSDNIGGSDIVLTQTPLSLSVTPGQPASISCRSSRSLLHSDGFTYLYWFLQKPGQSPQLLIYQTSNLASGVPDRFSSSGSGTDFTLKISRVEAEDVGVYYCAQNLELPNTFGQGTKLEIK ; pKd = 7.46

Entry EP02-3014 (1361-H) (antibody) chain 1: QVQLVQSGAEVKKPGASVKVSCKASGYTFTNYHIHWVRQAPGQRLEYIGWIYPGNVYIQYNEKFKGRATLTADKSASTAYMELSSLRSEDTAVYYCARDGPWFAYWGQGTLVTVSS chain 2: QGQSGQGLSCTHSRYDMHCPHMGGGSSGGAVGLLAPPGGLSGRSDNIGGSDIVLTQTPLSLSVTPGQPASISCRSSRSLLHSDGFTYLYWFLQKPGQSPQLLIYQTSNLASGVPDRFSSSGSGTDFTLKISRVEAEDVGVYYCAQNLELPNTFGQGTKLEIK ; pKd = 9.36

Entry EP107-3014 (1361-H) (antibody) chain 1: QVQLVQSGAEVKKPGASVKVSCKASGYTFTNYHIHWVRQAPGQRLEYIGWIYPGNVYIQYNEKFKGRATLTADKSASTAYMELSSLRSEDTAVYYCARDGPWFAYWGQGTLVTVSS chain 2: QGQSGQGSKPCSYMHPYCFYNSGGGSSGGAVGLLAPPGGLSGRSDNIGGSDIVLTQTPLSLSVTPGQPASISCRSSRSLLHSDGFTYLYWFLQKPGQSPQLLIYQTSNLASGVPDRFSSSGSGTDFTLKISRVEAEDVGVYYCAQNLELPNTFGQGTKLEIK ; pKd = 6.83

Entry EP109-3014 (1361-H) (antibody) chain 1: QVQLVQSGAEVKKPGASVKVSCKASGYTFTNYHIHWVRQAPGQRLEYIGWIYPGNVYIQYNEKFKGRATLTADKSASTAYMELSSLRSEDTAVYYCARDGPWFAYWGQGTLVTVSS chain 2: QGQSGQGPNTCMSERRICSLTYGGGSSGGAVGLLAPPGGLSGRSDNIGGSDIVLTQTPLSLSVTPGQPASISCRSSRSLLHSDGFTYLYWFLQKPGQSPQLLIYQTSNLASGVPDRFSSSGSGTDFTLKISRVEAEDVGVYYCAQNLELPNTFGQGTKLEIK ; pKd = 6.29

Entry EP103-3014 (1565-Y) (antibody) chain 1: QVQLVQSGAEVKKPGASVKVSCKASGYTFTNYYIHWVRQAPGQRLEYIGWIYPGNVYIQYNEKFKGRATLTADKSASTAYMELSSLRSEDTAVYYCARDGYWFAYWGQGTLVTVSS chain 2: QGQSGQGMSCVVDRFDRQCPHLGGGSSGGAVGLLAPPGGLSGRSDNIGGSDIVLTQTPLSLSVTPGQPASISCRSSRSLLHSDGFTYLYWFLQKPGQSPQLLIYQTSNLASGVPDRFSSSGSGTDFTLKISRVEAEDVGVYYCAQNLELPNTFGQGTKLEIK ; pKd = 6.85
